# Target desc: LXRα (Homo sapiens)
# Construct: Co-transfection expression plasmids, comprising full-length LXRα (pCMX-h LXRα)
# Sequence (Q13133 whole entry): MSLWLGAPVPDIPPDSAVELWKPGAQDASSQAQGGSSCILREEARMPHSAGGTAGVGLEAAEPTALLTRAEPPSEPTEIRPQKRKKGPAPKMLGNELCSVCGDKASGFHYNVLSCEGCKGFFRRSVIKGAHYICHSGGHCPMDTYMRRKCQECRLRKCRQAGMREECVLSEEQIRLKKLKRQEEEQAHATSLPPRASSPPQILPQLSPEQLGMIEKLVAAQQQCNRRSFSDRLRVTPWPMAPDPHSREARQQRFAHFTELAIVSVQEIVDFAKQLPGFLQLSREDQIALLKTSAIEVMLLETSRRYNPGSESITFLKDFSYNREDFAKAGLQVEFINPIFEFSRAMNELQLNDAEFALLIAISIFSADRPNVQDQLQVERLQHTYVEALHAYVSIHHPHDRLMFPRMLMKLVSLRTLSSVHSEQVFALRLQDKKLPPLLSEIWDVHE
# Sequence (P19793 whole entry partner): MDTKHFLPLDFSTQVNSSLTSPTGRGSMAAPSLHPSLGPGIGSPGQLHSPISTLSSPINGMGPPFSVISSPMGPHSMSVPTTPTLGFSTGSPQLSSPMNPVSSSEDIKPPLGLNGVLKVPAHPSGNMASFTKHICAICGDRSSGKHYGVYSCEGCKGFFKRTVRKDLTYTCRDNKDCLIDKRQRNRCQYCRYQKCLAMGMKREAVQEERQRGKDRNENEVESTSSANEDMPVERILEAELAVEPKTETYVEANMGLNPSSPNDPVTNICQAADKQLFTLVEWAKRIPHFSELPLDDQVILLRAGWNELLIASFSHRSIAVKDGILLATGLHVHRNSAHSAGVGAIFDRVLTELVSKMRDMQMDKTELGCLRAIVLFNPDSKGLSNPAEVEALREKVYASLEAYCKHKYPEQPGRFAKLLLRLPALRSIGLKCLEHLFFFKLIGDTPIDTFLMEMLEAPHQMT
# Test details: LXR/LXRE co-transfection assay (LXRα)
# Measurement parameters: CV-1 cells, LXRE luciferase reporter
# Protocol: To measure the ability of compounds to activate or inhibit the transcriptional activity of LXR in a cell based assay, the co-transfection assay was used. It has been shown that LXR functions as a heterodimer with RXR. […] Treatment of transfected cells with an LXR agonist increases the transcriptional activity of LXR, which is measured by an increase in luciferase activity. […]

Compound | EC50
CC(C)(O)c1cn(-c2ccc(-c3cc(F)c(CO)c(S(C)(=O)=O)c3)cc2F)c(Cc2ccc(F)cc2Cl)n1 | < 100 nM
CC(C)(O)c1cn(-c2ccc(-c3cc(F)c(CO)c(S(C)(=O)=O)c3)cc2Cl)c(C(C)(C)c2c(Cl)cccc2Cl)n1 | < 100 nM
CC(c1c(Cl)cccc1Cl)c1nc(C(C)(C)O)cn1-c1ccc(-c2cc(F)c(CO)c(S(C)(=O)=O)c2)cc1F (stereo not shown) | < 100 nM
CC(C)(O)c1cn(-c2ccc(-c3cc(F)c(CO)c(S(C)(=O)=O)c3)cc2F)c(C(C)(C)c2ccccc2F)n1 | < 100 nM
CC(C)(O)c1cn(-c2ccc(-c3cc(F)c(CO)c(S(C)(=O)=O)c3)cc2F)c(C(C)(C)c2ccccc2Cl)n1 | < 100 nM
CC(C)(O)c1cn(-c2ccc(-c3cc(F)c(CO)c(S(C)(=O)=O)c3)cc2Cl)c(Cc2ccc(F)cc2Cl)n1 | < 100 nM
CC(C)(O)c1cn(-c2ccc(-c3cc(F)c(CO)c(S(C)(=O)=O)c3)cc2F)c(C(C)(C)c2c(F)cccc2Cl)n1 | < 100 nM
CC(C)(O)c1cn(-c2ccc(-c3cc(F)c(CO)c(S(C)(=O)=O)c3)cc2)c(C(C)(C)c2c(Cl)cccc2Cl)n1 | < 100 nM
CC(C)(O)c1cn(-c2ccc(-c3cc(F)c(CO)c(S(C)(=O)=O)c3)cc2F)c(Cc2ccc(Cl)cc2Cl)n1 | > 1000 nM
CC(C)(O)c1cn(-c2ccc(-c3cc(F)c(CO)c(S(C)(=O)=O)c3)cc2)c(Cc2cc(F)ccc2Cl)n1 | > 1000 nM
CC(C)(O)c1cn(-c2ccc(-c3cc(F)c(CO)c(S(C)(=O)=O)c3)cc2F)c(Cc2ccccc2Cl)n1 | 101 to 1000 nM
CC(C)(O)c1cn(-c2ccc(-c3cc(F)c(CO)c(S(C)(=O)=O)c3)cc2)c(C(C)(C)c2ccccc2F)n1 | 101 to 1000 nM
Cc1ccccc1Cc1nc(C(C)(C)O)cn1-c1ccc(-c2cc(F)c(CO)c(S(C)(=O)=O)c2)cc1 | 101 to 1000 nM
CC(C)(O)c1cn(-c2ccc(-c3cc(F)c(CO)c(S(C)(=O)=O)c3)cc2F)c(Cc2ccccc2F)n1 | < 100 nM
CC(C)(O)c1cn(-c2ccc(-c3cc(F)c(CO)c(S(C)(=O)=O)c3)cc2F)c(Cc2ccccc2C(F)(F)F)n1 | < 100 nM
CC(C)(O)c1cn(-c2ccc(-c3cc(F)c(CO)c(S(C)(=O)=O)c3)cc2)c(Cc2c(Cl)cccc2Cl)n1 | < 100 nM
